From: patent US20190291112A1

Test system: Jurkat cells
Procedure Details: On chip drug screening assay (ethidium homodimer 1 staining)
Assay type: cell-based, human
Protocol Conditions: Homo sapiens, 16-24 h
Recorded Metric: pIC50
Hey, just a heads up that pIC50 is the negative log base 10 of the concentration in molar.

Given the entry CC(C)C[C@H](NC(=O)[C@H](Cc1ccccc1)NC(=O)c1cnccn1)B(O)O [bortezomib] , report its measured pIC50.
4.66

---

Tested on: MDA-MB-231 cells
Procedure Details: 96-well microtiter plate drug screening assay (Alamar Blue)
Type: cell-based, human
Protocol Conditions: 96-well plate
Recorded Metric: IC50

Given the entry N.N.[Cl][Pt][Cl] [cisplatin] , report its measured IC50.
> 50 µM
